# test: Displacement of [35S](2S,3S,4S,5R,6S)-6-(4-((2S,3R)-3-((S)-3-(4-fluorophenyl)-3-hydroxypropyl)-1-(4-(3-(methylsulfonamido)prop-1-ynyl)phenyl)-4-oxoazetidin-2-yl)phenoxy)-3,4,5-trihydroxytetrahydro-2H-pyran-2-carboxylic acid from NPC1L1 in pig enterocyte brush border membrane
# Parameters: species or system Sus scrofa
Measured IC50 accompanies every entry in the list below.

Consider the reported IC50 for these compounds:
>>> print(df.to_string())
                               query_smiles  reported_result
0  O=C(O)[C@H]1O[C@@H](Oc2ccc([C@@H]3[C@@H](CC[C@H](O)c4ccc(F)cc4)C(=O)N3c3ccc(F)cc3)cc2)[C@H](O)[C@@H](O)[C@@H]1O          0.32 µM
1  CS(=O)(=O)NCC#CN1C(=O)[C@H](CC[C@H](O)c2ccc(F)cc2)[C@H]1c1ccc(O[C@@H]2O[C@H](C(=O)O)[C@@H](O)[C@H](O)[C@H]2O)cc1         0.013 µM
2  CC(C)(C)c1ccc(C(=O)N2CCC3(CC2)C(=O)N(CC(=O)N2CCCCC2)CN3c2ccccc2)cc1         > 500 µM

// switching to the query compound
Could you please provide reported IC50 for O=C([C@@H]1C[C@@H](c2ccccc2)CN1C(=O)c1ccccc1)N1CCC2(C=Cc3ccccc32)CC1 ? Thanks! > 500 µM

---

# tested.target: NPC1-like intracellular cholesterol transporter 1 (Homo sapiens, UniProt Q9UHC9)
# Sequence (Q9UHC9 whole entry): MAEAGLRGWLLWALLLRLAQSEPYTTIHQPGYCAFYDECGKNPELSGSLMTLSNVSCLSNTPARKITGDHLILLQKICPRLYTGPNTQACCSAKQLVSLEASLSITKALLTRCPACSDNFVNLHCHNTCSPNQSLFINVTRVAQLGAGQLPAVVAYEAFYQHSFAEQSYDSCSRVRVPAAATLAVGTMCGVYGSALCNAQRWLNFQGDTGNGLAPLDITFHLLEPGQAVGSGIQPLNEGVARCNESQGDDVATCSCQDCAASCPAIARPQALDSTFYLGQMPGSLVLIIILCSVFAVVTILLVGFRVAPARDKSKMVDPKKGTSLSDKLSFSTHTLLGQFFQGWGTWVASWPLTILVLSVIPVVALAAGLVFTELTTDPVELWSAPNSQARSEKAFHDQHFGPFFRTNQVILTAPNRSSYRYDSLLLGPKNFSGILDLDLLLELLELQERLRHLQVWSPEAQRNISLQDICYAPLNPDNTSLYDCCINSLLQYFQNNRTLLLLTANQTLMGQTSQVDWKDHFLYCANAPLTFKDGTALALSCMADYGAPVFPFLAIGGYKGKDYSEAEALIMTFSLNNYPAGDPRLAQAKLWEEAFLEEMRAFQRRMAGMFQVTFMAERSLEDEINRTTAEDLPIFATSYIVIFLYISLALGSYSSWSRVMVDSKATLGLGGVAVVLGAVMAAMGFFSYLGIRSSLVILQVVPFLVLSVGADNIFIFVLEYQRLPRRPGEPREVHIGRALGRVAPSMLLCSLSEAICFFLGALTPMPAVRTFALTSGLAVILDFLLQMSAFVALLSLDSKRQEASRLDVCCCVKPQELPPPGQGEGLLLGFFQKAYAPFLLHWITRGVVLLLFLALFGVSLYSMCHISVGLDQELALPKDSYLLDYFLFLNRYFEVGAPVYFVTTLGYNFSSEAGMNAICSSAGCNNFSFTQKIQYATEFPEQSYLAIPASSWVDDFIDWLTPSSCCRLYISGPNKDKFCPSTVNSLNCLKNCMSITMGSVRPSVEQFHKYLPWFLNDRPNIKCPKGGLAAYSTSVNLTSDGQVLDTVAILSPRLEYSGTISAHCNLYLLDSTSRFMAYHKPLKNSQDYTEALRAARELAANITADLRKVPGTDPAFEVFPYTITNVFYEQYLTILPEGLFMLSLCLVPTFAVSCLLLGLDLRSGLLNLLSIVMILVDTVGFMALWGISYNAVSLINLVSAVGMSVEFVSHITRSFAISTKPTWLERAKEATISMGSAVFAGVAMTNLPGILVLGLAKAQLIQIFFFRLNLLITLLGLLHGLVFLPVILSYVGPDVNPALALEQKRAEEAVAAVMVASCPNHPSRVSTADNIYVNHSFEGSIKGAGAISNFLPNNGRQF
# test: Displacement of [35S](2S,3S,4S,5R,6S)-6-(4-((2S,3R)-3-((S)-3-(4-fluorophenyl)-3-hydroxypropyl)-1-(4-(3-(methylsulfonamido)prop-1-ynyl)phenyl)-4-oxoazetidin-2-yl)phenoxy)-3,4,5-trihydroxytetrahydro-2H-pyran-2-carboxylic acid from human recombinant NPC1L1 expressed in HEK293 cells
# Type: cell-based
metric: log10 IC50 (log10 of the value in µM)
Log scale reminder: IC50 in µM, then log10 taken.

Consider the reported log10 IC50 for these compounds:
In [3]: df
Out[3]:
                                   compound                             tested_target      metric  reported_result
0  Cc1ccc(CCC2CCC(CNC(=O)c3cn[nH]c3)CN2C(=O)OCc2ccccc2)cc1 (stereo unspecified)  NPC1-like intracellular cholesterol transporter 1 (Homo sapiens, UniProt Q9UHC9)  log10 IC50             1.91
1  CS(=O)(=O)NCC#CN1C(=O)[C@H](CC[C@H](O)c2ccc(F)cc2)[C@H]1c1ccc(O[C@@H]2O[C@H](C(=O)O)[C@@H](O)[C@H](O)[C@H]2O)cc1  NPC1-like intracellular cholesterol transporter 1 (Homo sapiens, UniProt Q9UHC9)  log10 IC50            -2.15
2  CC(C)(C)c1ccc(C(=O)N2CCC3(CC2)C(=O)N(CC(=O)N2CCCCC2)CN3c2ccccc2)cc1  NPC1-like intracellular cholesterol transporter 1 (Homo sapiens, UniProt Q9UHC9)  log10 IC50             0.40

Could you please provide reported log10 IC50 for O=C(c1cccc2ccccc12)N1CC(C(=O)N2CCC3(C=Cc4ccccc43)CC2)CC(c2ccccc2)C1 (stereo unspecified) ? Thanks! -0.41

Could you please provide reported log10 IC50 for CC1(C(=O)O)COc2ccc(CCN(CCCCC3CCCCC3)C(=O)Nc3ccc(SC(F)(F)F)cc3)cc2O1 (stereo unspecified) ? Thanks! 0.66

Could you please provide reported log10 IC50 for O=C(O)[C@H]1O[C@@H](Oc2ccc([C@@H]3[C@@H](CC[C@H](O)c4ccc(F)cc4)C(=O)N3c3ccc(F)cc3)cc2)[C@H](O)[C@@H](O)[C@@H]1O ? Thanks! -0.52
